experiment: Plasma concentration in rat at 0.25 mg/kg, iv administered through cassette dosing at 0.25 hrs; type: ADME, organism-based
result-type: concentration at 0.25 h (ng/mL)

Clc1ccc(CN2CCO[C@H](CSc3ccccc3)C2)cc1	26.1
Cn1ncc2cc(CN3CCO[C@H](COc4ccccc4)C3)ccc21	37.3
Clc1ccc2c(CN3CCO[C@H](COc4ccccc4)C3)c[nH]c2c1	74.8
Clc1ccc(CN2CCO[C@H](COc3ccccc3)C2)cc1	42.5
COc1ccc(CN2CCO[C@H](COc3ccccc3)C2)cc1F	14.7
Cc1ccc(CN2CCO[C@H](CSc3ccccc3)C2)cc1C	23.1

====

Listing of entries alongside the reported Ki.
molecular target: D(2) dopamine receptor (Homo sapiens, UniProt P14416); assay: Displacement of [3H]-Spiperone from human recombinant dopamine D2L receptor expressed in CHO cells; type: cell-based
Sequence (P14416 whole entry): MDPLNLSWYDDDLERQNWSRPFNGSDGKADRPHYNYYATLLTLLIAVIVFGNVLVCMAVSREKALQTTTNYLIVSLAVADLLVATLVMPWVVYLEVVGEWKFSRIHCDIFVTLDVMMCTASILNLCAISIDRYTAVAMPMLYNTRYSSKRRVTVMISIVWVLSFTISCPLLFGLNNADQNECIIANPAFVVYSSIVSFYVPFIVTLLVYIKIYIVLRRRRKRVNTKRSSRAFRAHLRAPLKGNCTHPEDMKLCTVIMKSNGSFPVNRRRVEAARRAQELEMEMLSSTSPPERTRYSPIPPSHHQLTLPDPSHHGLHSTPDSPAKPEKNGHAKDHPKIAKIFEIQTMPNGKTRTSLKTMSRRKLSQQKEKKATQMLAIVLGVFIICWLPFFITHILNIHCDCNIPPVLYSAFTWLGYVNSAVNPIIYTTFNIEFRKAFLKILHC
result-type: Ki

Fc1ccc2c(CN3CCO[C@H](COc4cccc(Cl)n4)C3)c[nH]c2c1	> 10 µM
Clc1ccc(CN2CCO[C@H](CSc3ccccc3)C2)cc1	> 10 µM
Cc1ccc(CN2CCO[C@H](CSc3ccccc3)C2)cc1C	> 10 µM

====

biological target: D(2) dopamine receptor (Homo sapiens, UniProt P14416); experiment: Displacement of [3H]-Spiperone from human recombinant dopamine D2S receptor expressed in CHO cells at 10 uM relative to control; assay type: cell-based
Catalogue of compounds with associated inhibition
result-type: inhibition (%)

Fc1ccc2c(CN3CCO[C@H](COc4ccccc4)C3)c[nH]c2c1	76
COc1cc(CN2CCO[C@H](COc3ccccc3)C2)ccc1Cl	60
COc1ccc(CN2CCO[C@H](COc3ccccc3)C2)cc1F	76
Fc1ccc(OC[C@@H]2CN(Cc3ccc(Cl)cc3)CCO2)cc1	79
COc1ccc2c(CN3CCO[C@H](COc4ccccc4)C3)c[nH]c2c1	82

====

The entries below are paired with their reported Fu.
test system: Plasma; assay: Fraction unbound in rat plasma by equilibrium dialysis method; format: ADME, cell-free
result-type: Fu

COc1cc(CN2CCO[C@H](COc3ccccc3)C2)ccc1Cl	0.025
Clc1ccc(CN2CCO[C@H](COc3cccc(Cl)n3)C2)cc1	0.008
COc1cc(CN2CCO[C@H](COc3cccc(F)c3)C2)ccc1Cl	0.014

====

biological target: D(1B) dopamine receptor (Homo sapiens); test: Displacement of [3H]-SCH-23390 from human recombinant dopamine D5 receptor expressed in CHO cells
Sequence (P21918 whole entry): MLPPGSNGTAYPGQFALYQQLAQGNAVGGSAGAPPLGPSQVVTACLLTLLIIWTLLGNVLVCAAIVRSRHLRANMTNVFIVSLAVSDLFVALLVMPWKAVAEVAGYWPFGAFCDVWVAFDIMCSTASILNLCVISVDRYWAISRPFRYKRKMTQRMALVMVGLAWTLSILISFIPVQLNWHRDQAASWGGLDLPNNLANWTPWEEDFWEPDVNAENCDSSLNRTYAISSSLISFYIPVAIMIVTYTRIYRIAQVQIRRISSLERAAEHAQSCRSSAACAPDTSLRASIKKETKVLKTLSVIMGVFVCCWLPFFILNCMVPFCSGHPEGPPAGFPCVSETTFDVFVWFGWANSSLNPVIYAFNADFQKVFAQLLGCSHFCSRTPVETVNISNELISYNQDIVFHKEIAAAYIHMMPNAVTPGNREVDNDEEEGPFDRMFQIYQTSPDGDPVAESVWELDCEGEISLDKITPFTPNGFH
pKi: −log10 of the molar value.
result-type: pKi

Fc1ccc2c(CN3CCO[C@H](COc4cccc(Cl)n4)C3)c[nH]c2c1	< 5.00
Clc1ccc(CN2CCO[C@H](CSc3ccccc3)C2)cc1	< 5.00
Cc1ccc(CN2CCO[C@H](CSc3ccccc3)C2)cc1C	< 5.00

====

target: UniProt:P14416; experiment: Displacement of [3H]-Spiperone from human recombinant dopamine D2L receptor expressed in CHO cells at 10 uM relative to control; format: cell-based
result-type: inhibition

Fc1ccc(OC[C@@H]2CN(Cc3ccc(Cl)cc3)CCO2)cc1	83%
Clc1ccc2c(CN3CCO[C@H](COc4ccccc4)C3)c[nH]c2c1	94%
COc1ccc(CN2CCO[C@H](COc3ccccc3)C2)cc1F	78%
COc1ccc(CN2CCO[C@H](COc3ccc(F)cc3)C2)cc1	88%
Fc1ccc2c(CN3CCO[C@H](COc4ccccc4)C3)c[nH]c2c1	78%
COc1ccc2c(CN3CCO[C@H](COc4ccccc4)C3)c[nH]c2c1	87%
c1ccc(OC[C@@H]2CN(Cc3ccc4[nH]ccc4c3)CCO2)cc1	64%
COc1cc(CN2CCO[C@H](COc3ccccc3)C2)ccc1Cl	52%
